All values here come from patent US7226936B2.

Target: COX-2 (Homo sapiens, UniProt P35354)
Construct: endogenous in cells
Sequence (P35354 18-604): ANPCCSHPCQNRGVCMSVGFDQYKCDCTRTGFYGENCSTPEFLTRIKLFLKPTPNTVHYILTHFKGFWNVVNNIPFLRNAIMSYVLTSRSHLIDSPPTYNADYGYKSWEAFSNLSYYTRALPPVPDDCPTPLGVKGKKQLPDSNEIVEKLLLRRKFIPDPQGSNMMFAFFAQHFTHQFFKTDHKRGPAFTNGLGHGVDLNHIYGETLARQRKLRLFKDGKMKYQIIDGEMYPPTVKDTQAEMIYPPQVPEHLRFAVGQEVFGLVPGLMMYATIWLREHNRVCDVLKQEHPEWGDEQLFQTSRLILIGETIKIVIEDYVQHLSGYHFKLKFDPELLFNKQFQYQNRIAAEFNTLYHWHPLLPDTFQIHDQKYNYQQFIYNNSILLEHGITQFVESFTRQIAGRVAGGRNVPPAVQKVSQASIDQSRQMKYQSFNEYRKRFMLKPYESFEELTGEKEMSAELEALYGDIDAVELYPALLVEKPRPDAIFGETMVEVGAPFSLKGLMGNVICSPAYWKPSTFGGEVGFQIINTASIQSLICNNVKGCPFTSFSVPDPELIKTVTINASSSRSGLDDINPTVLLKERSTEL
Experiment: whole blood assay, COX-2 inhibition
Conditions: estimated IC50, whole blood assay
PROPERTY NAME: pIC50
# reply with the number alone; pIC50 is -log10 of concentration in mol/L

O=S(=O)(Nc1ccncc1Oc1ccccc1)C(F)(F)F tested on COX-2 (Homo sapiens, UniProt P35354) gave pIC50: 6.40
